Experimental target: Carbonic anhydrase 4 (Bos taurus, UniProt Q95323)
Sequence (Q95323 whole entry): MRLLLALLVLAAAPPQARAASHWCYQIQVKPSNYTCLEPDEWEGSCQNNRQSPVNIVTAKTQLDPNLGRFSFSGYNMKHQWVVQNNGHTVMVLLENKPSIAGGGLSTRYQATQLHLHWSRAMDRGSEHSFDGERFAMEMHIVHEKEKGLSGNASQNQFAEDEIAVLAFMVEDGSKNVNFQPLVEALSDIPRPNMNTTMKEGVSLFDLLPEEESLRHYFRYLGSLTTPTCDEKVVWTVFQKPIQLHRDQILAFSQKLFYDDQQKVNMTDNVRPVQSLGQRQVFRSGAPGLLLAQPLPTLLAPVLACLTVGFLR
Label true (1) when Ki < 20 nM; otherwise false (0).

Molecule: CC(/N=C(/S)Nc1ccc(S(N)(=O)=O)cc1)C(=O)NC(Cc1ccccc1)C(=O)O (configuration not stated)
Category label: true (1)
--
Molecule: NS(=O)(=O)c1ccc(N/C(S)=N\CCc2c[nH]cn2)cc1
Category label: false (0)
--
Molecule: NCCCCC(/N=C(\S)Nc1ccc(S(N)(=O)=O)cc1)C(=O)O (configuration not stated)
Category label: false (0)
--
Molecule: NS(=O)(=O)c1ccc(N/C(S)=N\c2ccccc2C(=O)O)cc1
Category label: false (0)
--
Molecule: NS(=O)(=O)c1ccc(NC(=S)NC(Cc2cnc[nH]2)C(=O)NCC(=O)O)cc1 (configuration not stated)
Category label: true (1)
--
Molecule: NS(=O)(=O)c1ccc(N/C(S)=N/C(CS)C(=O)O)cc1 (configuration not stated)
Category label: true (1)
--
Molecule: NS(=O)(=O)c1ccc(N/C(S)=N/C(Cc2c[nH]c3ccccc23)C(=O)O)cc1 (configuration not stated)
Category label: false (0)
